system: ATP; assay: switch fluorescence ratio, 500 uM ATP over buffer (Cy3 cluster intensity, sum of 5 cycles each) (fold (ratio)); higher = stronger signal-on switching upon ATP binding; sequences stand for … in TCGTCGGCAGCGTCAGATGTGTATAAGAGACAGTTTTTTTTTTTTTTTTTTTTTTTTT…TC; settings: aptamer strand: ATP DNA aptamer (quencher-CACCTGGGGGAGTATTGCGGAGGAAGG + anchor), 100 nM annealed; ATP concentration: 500 uM;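 note: ATP exposure 15 min at 22 °C before imaging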
QUANTITY_KIND: switch fluorescence ratio
Reply: number alone, nothing else.

Give me measured switch fluorescence ratio, please, for this sequence: TCGGGCATAG
1.06

Give me measured switch fluorescence ratio, please, for this sequence: TGGTAATAGG
1.01

Give me measured switch fluorescence ratio, please, for this sequence: TAACGTCCAG
0.978

Give me measured switch fluorescence ratio, please, for this sequence: GTTCTTTATC
0.994

Give me measured switch fluorescence ratio, please, for this sequence: TGTTCTGCGA
1.43

Give me measured switch fluorescence ratio, please, for this sequence: TGTGACAGGA
1.02

***
Give me measured switch fluorescence ratio, please, for this sequence: TTTCATTGGT
1

Give me measured switch fluorescence ratio, please, for this sequence: AGCTTGGGGG
0.995

----------
# reported switch fluorescence ratio; entries follow
tested on: ATP; test: switch fluorescence ratio, 500 uM ATP over buffer (Cy3 cluster intensity, sum of 5 cycles each) (fold (ratio)); higher = stronger signal-on switching upon ATP binding; sequences stand for … in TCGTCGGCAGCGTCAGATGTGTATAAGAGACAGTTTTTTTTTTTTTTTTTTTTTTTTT…TC; details: aptamer strand: ATP DNA aptamer (quencher-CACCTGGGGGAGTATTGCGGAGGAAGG + anchor), 100 nM annealed; ATP concentration: 500 uM;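 note: ATP exposure 15 min at 22 °C before imaging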
Reply: number alone, nothing else.

// worked examples, switch fluorescence ratio included
Give me measured switch fluorescence ratio, please, for this sequence: GCTCTTATTA
0.977

Give me measured switch fluorescence ratio, please, for this sequence: CGCCAGAAGG
0.988

Give me measured switch fluorescence ratio, please, for this sequence: CTCAAATATG
1

Give me measured switch fluorescence ratio, please, for this sequence: CAATTTTGGT
1.01

Give me measured switch fluorescence ratio, please, for this sequence: AGGGGTCTTA
0.978

Give me measured switch fluorescence ratio, please, for this sequence: ATAGGGATTG
0.996

Give me measured switch fluorescence ratio, please, for this sequence: TGGATTAAGT
1.02

Give me measured switch fluorescence ratio, please, for this sequence: ATGCAATGGA
1

***
Give me measured switch fluorescence ratio, please, for this sequence: GGGGTGTTAG
1.02

----------
system: ATP; test: switch fluorescence ratio, 500 uM ATP over buffer (Cy3 cluster intensity, sum of 5 cycles each) (fold (ratio)); higher = stronger signal-on switching upon ATP binding; sequences stand for … in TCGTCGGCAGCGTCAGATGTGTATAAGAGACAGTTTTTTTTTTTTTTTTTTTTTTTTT…TC; conditions: aptamer strand: ATP DNA aptamer (quencher-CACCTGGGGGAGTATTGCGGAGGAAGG + anchor), 100 nM annealed; ATP concentration: 500 uM;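 note: ATP exposure 15 min at 22 °C before imaging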
# reported switch fluorescence ratio; entries follow
Reply: number alone, nothing else.

Under ATP: report switch fluorescence ratio of GAGGGTGTAG .
0.988

Under ATP: report switch fluorescence ratio of TTTAGGGGAT .
1.01

Now turn to the next sequence.
Under ATP: report switch fluorescence ratio of TTAATGCTAT .
0.984

----------
test system: ATP; test: switch fluorescence ratio, 500 uM ATP over buffer (Cy3 cluster intensity, sum of 5 cycles each) (fold (ratio)); higher = stronger signal-on switching upon ATP binding; sequences stand for … in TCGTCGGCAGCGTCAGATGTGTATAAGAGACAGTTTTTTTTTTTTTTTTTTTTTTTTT…TC; conditions: aptamer strand: ATP DNA aptamer (quencher-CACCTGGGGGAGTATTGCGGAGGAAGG + anchor), 100 nM annealed; ATP concentration: 500 uM;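 note: ATP exposure 15 min at 22 °C before imaging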
QUANTITY_KIND: switch fluorescence ratio
Reply: number alone, nothing else.

// worked examples, switch fluorescence ratio included
Under ATP: report switch fluorescence ratio of ACAGTCTGAC .
1.01

Under ATP: report switch fluorescence ratio of TCGATACTTT .
1.03

Under ATP: report switch fluorescence ratio of ACAGTCGGTG .
1.03

Under ATP: report switch fluorescence ratio of GTTCCAGAGG .
1.03

Under ATP: report switch fluorescence ratio of TGGTTACTCG .
0.984

Under ATP: report switch fluorescence ratio of TTGTTGAGAA .
0.995

Under ATP: report switch fluorescence ratio of CGGAGGACGG .
1.03

Under ATP: report switch fluorescence ratio of GTGTATTAGT .
0.966

***
Under ATP: report switch fluorescence ratio of TTTTTGGGAA .
0.996

Under ATP: report switch fluorescence ratio of CGAGGGGGAT .
1.19

Under ATP: report switch fluorescence ratio of TATCGGGGTA .
1

----------
system: ATP; assay: switch fluorescence ratio, 500 uM ATP over buffer (Cy3 cluster intensity, sum of 5 cycles each) (fold (ratio)); higher = stronger signal-on switching upon ATP binding; sequences stand for … in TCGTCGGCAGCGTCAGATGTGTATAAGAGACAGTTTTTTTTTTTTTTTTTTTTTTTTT…TC; details: aptamer strand: ATP DNA aptamer (quencher-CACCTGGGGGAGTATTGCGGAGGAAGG + anchor), 100 nM annealed; ATP concentration: 500 uM;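 note: ATP exposure 15 min at 22 °C before imaging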
QUANTITY_KIND: switch fluorescence ratio
Reply: number alone, nothing else.

Under ATP: report switch fluorescence ratio of GCTGTAGGTT .
1

Under ATP: report switch fluorescence ratio of GTGGGGTATT .
0.977

Under ATP: report switch fluorescence ratio of GAACTTGGTT .
1

Under ATP: report switch fluorescence ratio of TCCAGGGGGT .
2.41

Under ATP: report switch fluorescence ratio of GAGATGTGGT .
0.985

Under ATP: report switch fluorescence ratio of GAGAAATACG .
1.47

***
Under ATP: report switch fluorescence ratio of ACTCGATACG .
1.07

Under ATP: report switch fluorescence ratio of TGAAACACCG .
1.46

----------
tested on: ATP; assay: switch fluorescence ratio, 500 uM ATP over buffer (Cy3 cluster intensity, sum of 5 cycles each) (fold (ratio)); higher = stronger signal-on switching upon ATP binding; sequences stand for … in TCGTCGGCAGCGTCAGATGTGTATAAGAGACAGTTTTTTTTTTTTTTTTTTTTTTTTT…TC; conditions: aptamer strand: ATP DNA aptamer (quencher-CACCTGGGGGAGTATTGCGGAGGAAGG + anchor), 100 nM annealed; ATP concentration: 500 uM;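 note: ATP exposure 15 min at 22 °C before imaging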
# reported switch fluorescence ratio; entries follow
Reply: number alone, nothing else.

// worked examples, switch fluorescence ratio included
Under ATP: report switch fluorescence ratio of ACTGTGCACC .
1.05

Under ATP: report switch fluorescence ratio of GTCCTTGATA .
1.01

Under ATP: report switch fluorescence ratio of TTGGAAAGGG .
0.985

***
Under ATP: report switch fluorescence ratio of TCGTATATTA .
1.02

Under ATP: report switch fluorescence ratio of CTATTGATGG .
0.996

Under ATP: report switch fluorescence ratio of GCTTTGGAAG .
0.985

Under ATP: report switch fluorescence ratio of AAGCCCGGGA .
1.45

Under ATP: report switch fluorescence ratio of AAGGTCGGTA .
1

Under ATP: report switch fluorescence ratio of CTGGCGAGTA .
1.01

Under ATP: report switch fluorescence ratio of GGGTTTAGTA .
0.998

Under ATP: report switch fluorescence ratio of GGTTTTGGTT .
0.986

Under ATP: report switch fluorescence ratio of TTGATCAGGC .
0.996

Under ATP: report switch fluorescence ratio of AGTGGTGGTT .
0.977

Under ATP: report switch fluorescence ratio of GGGAAGTTTT .
0.978

----------
# reported switch fluorescence ratio; entries follow
system: ATP; assay: switch fluorescence ratio, 500 uM ATP over buffer (Cy3 cluster intensity, sum of 5 cycles each) (fold (ratio)); higher = stronger signal-on switching upon ATP binding; sequences stand for … in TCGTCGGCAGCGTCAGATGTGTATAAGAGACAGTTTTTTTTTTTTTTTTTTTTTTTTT…TC; details: aptamer strand: ATP DNA aptamer (quencher-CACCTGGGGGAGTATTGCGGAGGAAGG + anchor), 100 nM annealed; ATP concentration: 500 uM;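 note: ATP exposure 15 min at 22 °C before imaging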
Reply: number alone, nothing else.

Give me measured switch fluorescence ratio, please, for this sequence: TCTTACAGTA
1.09

***
Give me measured switch fluorescence ratio, please, for this sequence: AATTTAATTT
1.02

Give me measured switch fluorescence ratio, please, for this sequence: CGGGATGTAG
0.987

Give me measured switch fluorescence ratio, please, for this sequence: GGGCGATGGG
1.02

----------
tested on: ATP; assay: switch fluorescence ratio, 500 uM ATP over buffer (Cy3 cluster intensity, sum of 5 cycles each) (fold (ratio)); higher = stronger signal-on switching upon ATP binding; sequences stand for … in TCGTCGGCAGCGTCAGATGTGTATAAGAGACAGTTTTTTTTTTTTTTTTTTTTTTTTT…TC; conditions: aptamer strand: ATP DNA aptamer (quencher-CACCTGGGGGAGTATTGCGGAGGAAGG + anchor), 100 nM annealed; ATP concentration: 500 uM;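 note: ATP exposure 15 min at 22 °C before imaging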
QUANTITY_KIND: switch fluorescence ratio
Reply: number alone, nothing else.

// worked examples, switch fluorescence ratio included
Give me measured switch fluorescence ratio, please, for this sequence: GATACGGACA
1.42

Give me measured switch fluorescence ratio, please, for this sequence: TATCTTTCGG
0.997

Give me measured switch fluorescence ratio, please, for this sequence: GGTTGGAGGT
0.971

***
Give me measured switch fluorescence ratio, please, for this sequence: ATAGTCAGGG
0.988

Give me measured switch fluorescence ratio, please, for this sequence: TTGAATGTTT
0.992

Give me measured switch fluorescence ratio, please, for this sequence: CGTCTTTAGA
0.987

Give me measured switch fluorescence ratio, please, for this sequence: TCAGAGACCC
1.01

Give me measured switch fluorescence ratio, please, for this sequence: ATCGTATATG
0.972

Give me measured switch fluorescence ratio, please, for this sequence: CAGAGGGCTA
1.03

Give me measured switch fluorescence ratio, please, for this sequence: TGTAATGGGT
1

Give me measured switch fluorescence ratio, please, for this sequence: GTTGGAGTTT
0.975

Give me measured switch fluorescence ratio, please, for this sequence: CGGTCAAAAA
1.03

Give me measured switch fluorescence ratio, please, for this sequence: TTGTGTCTGC
0.999
